The measurements presented in this section are drawn from patent US9890185B2.

tested on: PBMCs; assay: IL-2 release in CD3/CD28 stimulated PBMC cells (assay c); assay type: cell-based; conditions: Homo sapiens, read-out: IC50 Values for Inhibition of Cytokine Release, PBMCs IL-2
The reader will find reported IC50 values listed item by item below.
Return type: number; implicit unit nM.

See these solved cases before continuing.
>>> recorded_result("COc1c(CC(N)=O)cc(C(C)(C)C)cc1NC(=O)Nc1ccc(Oc2ccnc(NCc3ccccn3)c2)c2ccccc12")
1650
>>> recorded_result("COc1cc(Nc2cc(Oc3ccc(NC(=O)Nc4cc(C(C)(C)C)cc(CNC(C)=O)c4OC)c4ccccc34)ccn2)cc(C(=O)NCCN2CC[S+]([O-])CC2)c1")
33.7

// returns reported IC50 for input COCCOCCOCCNC(=O)c1cc(Nc2cc(Oc3ccc(NC(=O)Nc4cc(C(C)(C)C)cc(C(=O)NCCN5CCOCC5)c4OC)c4ccccc34)ccn2)cc(OC)c1
55.6

May I ask what IC50 has been recorded for COc1c(NC(=O)Nc2ccc(Oc3ccnc(Nc4ccccc4)c3)c3ccccc23)cc(C(C)(C)C)cc1C(=O)NCCN1CCOCC1 ?
39.2

Give the measured IC50 of COc1c(NC(=O)Nc2ccc(Oc3ccnc(Nc4cccnc4)c3)c3ccccc23)cc(C(C)(C)C)cc1P(C)(C)=O .
1110

Dear colleague, I am looking for the recorded IC50 of the following compound: COc1cc(Nc2cc(Oc3ccc(NC(=O)Nc4cc(C(C)(C)C)cc(OC(CO)CO)c4OC)c4ccccc34)ccn2)cc(C(N)=O)c1
60.9

====

Listed next: entries and their corresponding pIC50.
test system: PBMCs; assay: IL-2 release in CD3/CD28 stimulated PBMC cells (assay c); assay type: cell-based; conditions: Homo sapiens, read-out: IC50 Values for Inhibition of Cytokine Release, PBMCs IL-2
To interpret pIC50, take it as minus log10 of a concentration measured in moles per litre.

These solved cases illustrate the format of a correct answer.
>>> recorded_result("COc1cc(Nc2nccc(Oc3ccc(NC(=O)Nc4cc(C(C)(C)C)cc(OCP(C)(C)=O)c4OC)c4ccccc34)n2)cc(OC)c1")
7.98
>>> recorded_result("COc1cc(Nc2cc(Oc3ccc(NC(=O)Nc4cc(C(C)(C)C)cc(CC(N)=O)c4OC)c4ccccc34)ccn2)cc(C(=O)NCCN2CCOCC2)c1")
7.44
>>> recorded_result("COc1c(CS(C)(=O)=O)cc(C(C)(C)C)cc1NC(=O)Nc1ccc(Oc2ccnc(Nc3ccccc3)c2)c2ccccc12")
6.59
>>> recorded_result("COc1c(CP(C)(C)=O)cc(C(C)(C)C)cc1NC(=O)Nc1ccc(Oc2ccnc(Nc3ccccc3)c2)c2ccccc12")
6.56
>>> recorded_result("COCCOCCOCCOc1cc(Nc2nccc(Oc3ccc(NC(=O)Nc4cc(C(C)(C)C)cc(C(=O)NCCN5CCOCC5)c4OC)c4ccccc34)n2)cc(OC)c1")
7.38

Looking for the measured pIC50 of COc1c(CC(N)=O)cc(C(C)(C)C)cc1NC(=O)Nc1ccc(Oc2ccnc(Nc3ccn(C)n3)c2)c2ccccc12 , can you help?
7.22

Would you kindly share the measured pIC50 for COc1cc(Nc2cc(Oc3ccc(NC(=O)Nc4cc(C(C)(C)C)cc(C(=O)NCCN5CCOCC5)c4OC)c4ccccc34)ccn2)cc(C(N)=O)c1 ?
8.11

Which pIC50 is listed for COc1cccc(Nc2cc(Oc3ccc(NC(=O)Nc4cc(C(C)(C)C)cc(C(=O)NCCN5CCOCC5)c4OC)c4ccccc34)ccn2)c1 ?
7.76

pIC50 for COc1cc(Nc2nccc(Oc3ccc(NC(=O)Nc4cc(C(C)(C)C)cc(P(C)(C)=O)c4OC)c4ccccc34)n2)cc(OC)c1 ?
7.71

I would be grateful if you could share the reported pIC50 for COc1c(NC(=O)Nc2ccc(Oc3ccnc(Nc4cc(C#N)cc(OCCN5CCOCC5)c4)c3)c3ccccc23)cc(C(C)(C)C)cc1[S+](C)[O-] (stereo not shown) .
7.00

GET /values?readout=pIC50&item= COc1cncc(Nc2cc(Oc3ccc(NC(=O)Nc4cc(C(C)(C)C)cc(CC(N)=O)c4OC)c4ccccc34)ccn2)c1
6.46

What value of measured pIC50 is listed for COc1cc(Nc2cc(Oc3ccc(NC(=O)Nc4cc(C(C)(C)C)cc(P(C)(C)=O)c4OC)c4ccccc34)ccn2)cc(S(=O)(=O)N(C)CCCN2CCOCC2)c1 ?
6.20

Tell me the measured pIC50 of COc1cc(Nc2cc(Oc3ccc(NC(=O)Nc4cc(C(C)(C)C)cc(CNC(C)=O)c4OC)c4ccccc34)ccn2)cc(C(=O)NCCN2CCOCC2)c1 , please.
6.54

====

# key: entry, value: pIC50
tested on: PBMCs; assay: LPS-induced IL-8 release in PBMC cells (assay b); type: cell-based, human; conditions: Homo sapiens, PBMC; LPS-stimulated PBMCs; read-out: IC50 Values for Inhibition of Cytokine Release, PBMCs IL-8
Scale for pIC50: -log10 of concentration given in mol/L; no unit attached.

>>> recorded_result("COCCOCCOCCOc1cc(Nc2nccc(Oc3ccc(NC(=O)Nc4cc(C(C)(C)C)cc(CC(N)=O)c4OC)c4ccccc34)n2)cc(OC)c1")
8.80
>>> recorded_result("COc1c(NC(=O)Nc2ccc(Oc3ccnc(Nc4cncc(N(C)C)n4)c3)c3ccccc23)cc(C(C)(C)C)cc1P(C)(C)=O")
8.41
>>> recorded_result("COc1c(NC(=O)Nc2ccc(Oc3ccnc(Nc4cc(C)cc(Cl)c4)c3)c3ccccc23)cc(C(C)(C)C)cc1P(C)(C)=O")
8.21
>>> recorded_result("COc1cc(Nc2cc(Oc3ccc(NC(=O)Nc4cc(C(C)(C)C)cc(CC(N)=O)c4OC)c4ccccc34)ccn2)cc(C(=O)NCCN2CCOCC2)c1")
8.92
>>> recorded_result("COc1cc(Nc2cc(Oc3ccc(NC(=O)Nc4cc(C(C)(C)C)cc(CC(N)=O)c4OC)c4ccccc34)ccn2)cc(S(=O)(=O)N(C)C)c1")
8.68

Query the reported pIC50 for PBMCs; item: COc1cc(Nc2cc(Oc3ccc(NC(=O)Nc4cc(C(C)(C)C)cc(C(=O)NCCN5CC[S+]([O-])CC5)c4OC)c4ccccc34)ccn2)cc(OC)c1
8.59

Give the reported pIC50 for COc1c(CN(C)C(C)=O)cc(C(C)(C)C)cc1NC(=O)Nc1ccc(Oc2ccnc(Nc3ccccc3)c2)c2ccccc12 (system: PBMCs).
8.60

What reported pIC50 corresponds to COc1cc(Nc2cc(Oc3ccc(NC(=O)Nc4cc(C(C)(C)C)cc(CNC(C)=O)c4OC)c4ccccc34)ccn2)cc(OC)c1 on PBMCs?
8.89

I'm curious: which pIC50 was measured for COCCOCCOCCOc1cc(Nc2cc(Oc3ccc(NC(=O)Nc4cc(C(C)(C)C)cc(C(=O)NCCN5CCOCC5)c4OC)c4ccccc34)ccn2)cc(OC)c1 tested on PBMCs?
8.77

====

Attribute: % β-catenin induction
test system: d-U937 cells; assay: Accumulation of β catenin in d-U937 cells (assay m); format: cell-based, human; settings: test compound 1 μg/mL; percentage relative to Reference Compound at 1 μg/mL
Response body: numeric value in %, unit text excluded.

Some solved entries appear below for comparison.
>>> recorded_result("COCCOCCOCCOc1cc(Nc2nccc(Oc3ccc(NC(=O)Nc4cc(C(C)(C)C)cc(CC(N)=O)c4OC)c4ccccc34)n2)cc(OC)c1 [15(c)]")
5.5
>>> recorded_result("CNC(=O)Cc1cc(C(C)(C)C)cc(NC(=O)Nc2ccc(Oc3ccnc(Nc4cccc(OC)c4)c3)c3ccccc23)c1OC [38(h)]")
1.5
>>> recorded_result("COc1cccc(Nc2cc(Oc3ccc(NC(=O)Nc4cc(C(C)(C)C)cc(CNC(C)=O)c4OC)c4ccccc34)ccn2)c1 [Example 43]")
7.5

Kindly consider the entry below.
If you can, please state the reported % β-catenin induction value of COc1c(NC(=O)Nc2ccc(Oc3ccnc(Nc4ccccc4)n3)c3ccccc23)cc(C(C)(C)C)cc1OCP(C)(C)=O [15(d)] .
11.0

====

tested on: PBMCs; experiment: IL-2 release in CD3/CD28 stimulated PBMC cells (assay c); assay type: cell-based; details: Homo sapiens, read-out: IC50 Values for Inhibition of Cytokine Release, PBMCs IL-2
Hi! Could you tag entries with IC50 below 0.03 µM as 1, and those at or above as 0? Much appreciated.

>>> label_class("COc1cc(Nc2cc(Oc3ccc(NC(=O)Nc4cc(C(C)(C)C)cc(C(=O)NCCN5CCOCC5)c4OC)c4ccccc34)ccn2)cc(OC)c1")
1

Given the entry COc1cc(Nc2cc(Oc3ccc(NC(=O)Nc4cc(C(C)(C)C)cc(C[S+](C)[O-])c4OC)c4ccccc34)ccn2)cc(C(=O)NCCN2CCOCC2)c1 (stereo not drawn) , would its reported IC50 be below 0.03 µM?
0

Does COCCOCCOCCOc1cc(Nc2cc(Oc3ccc(NC(=O)Nc4cc(C(C)(C)C)cc(C(=O)NCCN5CCOCC5)c4OC)c4ccccc34)ccn2)cc(OC)c1 have IC50 strictly under 0.03 µM?
1

Would you kindly verify if IC50 of COCCOCCOCCOc1cc(Nc2cc(Oc3ccc(NC(=O)Nc4cc(C(C)(C)C)cc(P(C)(C)=O)c4)c4ccccc34)ccn2)cc(OC)c1 is strictly less than 0.03 µM?
0

Decide: IC50 of COc1c(NC(=O)Nc2ccc(Oc3ccnc(Nc4cc(C)cc(C)c4)c3)c3ccccc23)cc(C(C)(C)C)cc1P(C)(C)=O strictly below 0.03 µM?
0
